SUBJECT_OF_TEST: human Nav1.1 (Homo sapiens)
Construct: host or cells: HEK293
EXPERIMENT_SUMMARY: Amplification of Nav1.1-derived voltage-dependent sodium current (Nav1.1 current), cell line stably expressing human Nav1.1, automated patch clamp
Assay type: cell-based
PROTOCOL_CONDITIONS: 10 μmol/L compound; change of the area under the curve of Nav1.1 current (Test Result 1); read-out: Nav1.1 current amplification rate (%)
READOUT: activation at 10 µM
Write the numeric value and append its unit.

These solved cases illustrate the format of a correct answer.
• CC1(C)CC=C(c2ccc(=O)n(CC(=O)Nc3ccc4ocnc4c3)n2)CC1 [Example 445] = 320%
• O=C(Cn1nc(C2=CCC(F)(F)CC2)ccc1=O)Nc1ccnc(C(F)(F)F)c1 [Example 114] = 83%

Now examine the next entry.
*Q* Item Cc1cn2ccc(NC(=O)Cn3nc(N4CCC(C)CC4)ccc3=O)cc2n1 [Example 174] : provide activation at 10 µM
*A* 75%

###

Entries and their measured activation at 1 µM follow.
SUBJECT_OF_TEST: human Nav1.1 (Homo sapiens, UniProt P35498)
Construct: host or cells: HEK293
EXPERIMENT_SUMMARY: Amplification of Nav1.1-derived voltage-dependent sodium current (Nav1.1 current), cell line stably expressing human Nav1.1, automated patch clamp
Type: cell-based
PROTOCOL_CONDITIONS: compound 1 μmol/L; HEK293 stably expressing human Nav1.1; read-out: Nav1.1 current amplification rate (%)
The figure you give is taken to be in %; do not add the unit.

These solved cases illustrate the format of a correct answer.
- O=C(Cn1nc(C2=CCCCC2)ccc1=O)N1CCc2c(-c3cncnc3)cccc21: 367
- O=C(Cn1nc(C2=CCCCC2)ccc1=O)N1CCc2c(-c3ccnnc3)cccc21: 359
- O=C(Cn1nc(C2=CCC3(CC2)CC3)ccc1=O)N1CCc2c(-c3ccnnc3)cccc21: 499

Now examine the next entry.
*Q* Item CC(=O)N1CC(c2cccc3c2CCN3C(=O)Cn2nc(-c3ccc(C)cc3)ccc2=O)C1 : provide activation at 1 µM
*A* 253

###

SUBJECT_OF_TEST: human Nav1.1 (Homo sapiens)
Construct: host or cells: HEK293
EXPERIMENT_SUMMARY: Amplification of Nav1.1-derived voltage-dependent sodium current (Nav1.1 current), cell line stably expressing human Nav1.1, automated patch clamp
Assay type: cell-based
PROTOCOL_CONDITIONS: compound 50 μmol/L; HEK293 stably expressing human Nav1.1
READOUT: Nav1.1 current amplification rate (%)
Write the numeric value and append its unit.

- CC1CC=C(c2ccc(=O)n(CC(=O)N3CCN(C4CCCOC4)CC3)n2)CC1 (stereo not drawn) [Example 408]: 80%
- CC1CC=C(c2ccc(=O)n(CC(=O)Nc3ccc4nncn4c3)n2)CC1 (racemic) [Example 341]: 202%

*Q* Item COCCCN1CC2(CCN(C(=O)Cn3nc(C4=CCC(C)CC4)ccc3=O)C2)C1 (racemic) [Example 308] : provide Nav1.1 current amplification rate (%)
*A* 9%

###

SUBJECT_OF_TEST: human Nav1.5 (Homo sapiens, UniProt Q14524)
Construct: expressed in transfected cells; host or cells: CHO-K1 (T-REx System, ThermoFisher Scientific)
Sequence (Q14524 1-2015 isoform Q14524-2): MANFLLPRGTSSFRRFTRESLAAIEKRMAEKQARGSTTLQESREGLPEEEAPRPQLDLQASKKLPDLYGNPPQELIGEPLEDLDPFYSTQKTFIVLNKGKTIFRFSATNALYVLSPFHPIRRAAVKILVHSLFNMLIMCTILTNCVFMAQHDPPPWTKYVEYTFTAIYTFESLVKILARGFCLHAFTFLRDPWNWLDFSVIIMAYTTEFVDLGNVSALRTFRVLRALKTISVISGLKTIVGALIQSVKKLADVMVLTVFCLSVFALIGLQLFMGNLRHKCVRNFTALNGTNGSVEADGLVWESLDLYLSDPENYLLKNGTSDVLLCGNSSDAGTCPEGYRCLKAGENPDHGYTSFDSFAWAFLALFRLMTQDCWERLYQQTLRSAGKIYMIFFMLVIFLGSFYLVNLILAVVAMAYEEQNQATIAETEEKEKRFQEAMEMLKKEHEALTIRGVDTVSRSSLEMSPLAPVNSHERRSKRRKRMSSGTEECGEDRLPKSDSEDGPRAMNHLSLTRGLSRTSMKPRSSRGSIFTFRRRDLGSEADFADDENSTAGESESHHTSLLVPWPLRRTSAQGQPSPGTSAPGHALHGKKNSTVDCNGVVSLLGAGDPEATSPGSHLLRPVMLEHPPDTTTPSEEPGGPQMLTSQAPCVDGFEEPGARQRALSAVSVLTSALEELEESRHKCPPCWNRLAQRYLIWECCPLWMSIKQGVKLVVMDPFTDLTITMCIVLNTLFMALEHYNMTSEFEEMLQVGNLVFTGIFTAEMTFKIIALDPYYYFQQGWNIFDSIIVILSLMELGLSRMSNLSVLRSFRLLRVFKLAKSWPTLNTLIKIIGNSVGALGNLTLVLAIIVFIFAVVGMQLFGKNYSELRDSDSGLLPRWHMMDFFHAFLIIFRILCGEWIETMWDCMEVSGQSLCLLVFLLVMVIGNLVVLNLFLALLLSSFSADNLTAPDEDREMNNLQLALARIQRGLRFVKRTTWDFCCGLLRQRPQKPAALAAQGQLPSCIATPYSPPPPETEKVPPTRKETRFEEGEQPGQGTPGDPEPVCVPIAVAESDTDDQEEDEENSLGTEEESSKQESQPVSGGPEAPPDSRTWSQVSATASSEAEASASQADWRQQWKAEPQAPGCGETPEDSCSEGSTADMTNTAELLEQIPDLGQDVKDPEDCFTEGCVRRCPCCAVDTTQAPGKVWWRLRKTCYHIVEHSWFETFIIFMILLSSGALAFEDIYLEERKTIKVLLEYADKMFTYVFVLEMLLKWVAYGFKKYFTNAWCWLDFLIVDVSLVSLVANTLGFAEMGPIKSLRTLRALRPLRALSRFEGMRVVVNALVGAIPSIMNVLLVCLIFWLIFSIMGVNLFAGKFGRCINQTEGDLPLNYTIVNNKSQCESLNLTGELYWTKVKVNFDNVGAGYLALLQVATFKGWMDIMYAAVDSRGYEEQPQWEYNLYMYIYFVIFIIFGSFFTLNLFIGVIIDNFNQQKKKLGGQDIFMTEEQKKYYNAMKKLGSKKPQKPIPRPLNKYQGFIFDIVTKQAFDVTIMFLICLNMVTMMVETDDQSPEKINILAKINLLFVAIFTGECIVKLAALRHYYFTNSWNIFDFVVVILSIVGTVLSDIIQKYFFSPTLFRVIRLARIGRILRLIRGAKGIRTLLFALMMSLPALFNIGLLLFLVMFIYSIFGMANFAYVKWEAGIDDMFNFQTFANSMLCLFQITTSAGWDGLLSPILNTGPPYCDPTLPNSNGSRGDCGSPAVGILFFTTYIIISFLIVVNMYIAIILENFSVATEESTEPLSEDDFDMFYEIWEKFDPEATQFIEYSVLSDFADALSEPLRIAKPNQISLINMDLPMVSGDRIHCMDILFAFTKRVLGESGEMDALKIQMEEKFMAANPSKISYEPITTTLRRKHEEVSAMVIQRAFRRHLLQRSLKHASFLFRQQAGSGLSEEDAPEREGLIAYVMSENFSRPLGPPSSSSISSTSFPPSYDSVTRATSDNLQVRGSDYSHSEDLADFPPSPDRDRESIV
EXPERIMENT_SUMMARY: Amplification of Nav1.5-derived voltage-dependent sodium current (Nav1.5 current), cell line stably expressing human Nav1.5, automated patch clamp
Assay type: cell-based
PROTOCOL_CONDITIONS: 10 μmol/L compound; change of the area under the curve of Nav1.5 current (Test Result 1)
Okay, here is how we bin by Nav1.5 current amplification rate (%): lower band = under 10%, central band = from 10% up to 30%, upper band = 30% and over

* CC1(C)CC=C(c2ccc(=O)n(CC(=O)N3CCC4(CCOCC4)CC3)n2)CC1 | lower band
* CC1CCN(c2ccc(=O)n(CC(=O)Nc3ccnc(N4CCOCC4)c3)n2)CC1 | upper band
* CC1(C)CC=C(c2ccc(=O)n(CC(=O)N3CCc4c(N5CCOCC5)cccc43)n2)C1 | upper band
* COc1cc(-c2cc(Cl)cs2)nn(CC(=O)N2CCc3c(N4CCOCC4)cccc32)c1=O | upper band
* COCOc1cccc2c1CCN2C(=O)Cn1nc(C2=CCC(C)(C)CC2)ccc1=O | central band

Next, consider the following molecule.
*Q* Which Nav1.5 current amplification rate (%) band matches Cc1nc2cc(NC(=O)Cn3nc(N4CCC(C)CC4)ccc3=O)ccc2s1 ?
*A* upper band

###

SUBJECT_OF_TEST: human Nav1.5 (Homo sapiens, UniProt Q14524)
Construct: expressed in transfected cells; host or cells: CHO-K1 (T-REx System, ThermoFisher Scientific)
EXPERIMENT_SUMMARY: Amplification of Nav1.5-derived voltage-dependent sodium current (Nav1.5 current), cell line stably expressing human Nav1.5, automated patch clamp
Format: cell-based
PROTOCOL_CONDITIONS: compound 1 μmol/L; CHO-K1 stably expressing human Nav1.5
Record true whenever Nav1.5 current amplification rate (%) is at 30% or higher; record false when lower.

• Cc1cc(NC(=O)Cn2nc(C3=CCC(C)CC3)ccc2=O)cn2ncnc12 (racemic) = false
• O=C(Cn1nc(C2=CCCCC2)ccc1=O)N1CCc2c(N3CCOCC3)cccc21 = false
• CC1CC=C(c2ccc(=O)n(CC(=O)N3CCc4c(Cn5ccnc5)cccc43)n2)CC1 (racemic) = true
• CC1CC=C(c2ccc(=O)n(CC(=O)N3CCc4c3cccc4C(C)(C)O)n2)CC1 (racemic) = false
• CC1CC=C(c2ccc(=O)n(CC(=O)Nc3ccn4cncc4c3)n2)CC1 (racemic) = true
• CC1CC=C(c2ccc(=O)n(CC(=O)Nc3ccc(C#N)nc3)n2)CC1 (racemic) = true
• CC1CC=C(c2ccc(=O)n(CC(=O)N3CCc4c(CN5CC=CC5)cccc43)n2)CC1 (racemic) = true
• CC1CC=C(c2ccc(=O)n(CC(=O)N3CCc4c(CNC5COC5)cccc43)n2)CC1 (racemic) = true

Next, consider the following compound.
*Q* Does CC1CC=C(c2ccc(=O)n(CC(=O)Nc3ccc4ncnn4c3)n2)CC1 (racemic) have a reported Nav1.5 current amplification rate (%) of at least 30%?
*A* false

###

SUBJECT_OF_TEST: human Nav1.1 (Homo sapiens, UniProt P35498)
Construct: host or cells: HEK293
EXPERIMENT_SUMMARY: Amplification of Nav1.1-derived voltage-dependent sodium current (Nav1.1 current), cell line stably expressing human Nav1.1, automated patch clamp
Format: cell-based
PROTOCOL_CONDITIONS: compound 3 μmol/L; HEK293 stably expressing human Nav1.1
READOUT: Nav1.1 current amplification rate (%)
The figure you give is taken to be in %; do not add the unit.

• CC1CC=C(c2ccc(=O)n(CC(=O)N3CCc4c(C5CN(C(=O)CO)C5)cccc43)n2)CC1 (racemic) = 478
• CC1CC=C(c2ccc(=O)n(CC(=O)N3CCc4c(C5CN(C6CCOC6)C5)cccc43)n2)CC1 (racemic) = 314
• CC1CC=C(c2ccc(=O)n(CC(=O)N3CCc4c(C5CCNC5)cccc43)n2)CC1 (mixture of isomers) = 55

Now examine the next entry.
*Q* With human Nav1.1 (Homo sapiens, UniProt P35498) as the test system, provide measured Nav1.1 current amplification rate (%) for this compound: CC1CC=C(c2ccc(=O)n(CC(=O)N3CCc4c(CO)cccc43)n2)CC1 (racemic)
*A* 108

###

SUBJECT_OF_TEST: human Nav1.1 (Homo sapiens, UniProt P35498)
Construct: host or cells: HEK293
EXPERIMENT_SUMMARY: Amplification of Nav1.1-derived voltage-dependent sodium current (Nav1.1 current), cell line stably expressing human Nav1.1, automated patch clamp
Assay type: cell-based
PROTOCOL_CONDITIONS: 10 μmol/L compound; change of the area under the curve of Nav1.1 current (Test Result 1); read-out: Nav1.1 current amplification rate (%)
READOUT: activation at 10 µM

*Q* Item CC1(C)CCC=C(c2ccc(=O)n(CC(=O)Nc3ccc4ocnc4c3)n2)C1 [Example 129] : provide activation at 10 µM
*A* 314%

*Q* Item N#Cc1ccc(NC(=O)Cn2nc(N3CCC4(CCC4)CC3)ccc2=O)cn1 [Example 124] : provide activation at 10 µM
*A* 205%

*Q* Item CC1CCN(c2ccc(=O)n(CC(=O)N3CCc4cc(N5CCCC5=O)ccc43)n2)CC1 [Example 219] : provide activation at 10 µM
*A* 97%

###

SUBJECT_OF_TEST: human Nav1.5 (Homo sapiens)
Construct: expressed in transfected cells; host or cells: CHO-K1 (T-REx System, ThermoFisher Scientific)
EXPERIMENT_SUMMARY: Amplification of Nav1.5-derived voltage-dependent sodium current (Nav1.5 current), cell line stably expressing human Nav1.5, automated patch clamp
Format: cell-based
PROTOCOL_CONDITIONS: compound 1 μmol/L; CHO-K1 stably expressing human Nav1.5; read-out: Nav1.5 current amplification rate (%)
Record true whenever activation at 1 µM is at 30% or higher; record false when lower.

* O=C(Cn1nc(C2=CCCCC2)ccc1=O)N1CCc2c(-c3cncnc3)cccc21 [Example 522] | false
* C[C@H]1CC=C(c2ccc(=O)n(CC(=O)Nc3ccc4ncnn4c3)n2)CC1 [Example 540] | false
* C[C@H]1CC=C(c2ccc(=O)n(CC(=O)Nc3ccn4ncnc4c3)n2)CC1 [Example 538] | true
* Cc1ncc(-c2cccc3c2CCN3C(=O)Cn2nc(C3=CCCCC3)ccc2=O)cn1 [Example 518] | false
* CN(C)c1cc(N2CCC3(CCC3)C2)nn(CC(=O)N2CCc3c(N4CCOCC4)cccc32)c1=O [Example 222] | false
* CC(=O)N1CC(c2cccc3c2CCN3C(=O)Cn2nc(-c3ccc(C)cc3)ccc2=O)C1 [Example 520] | true
* O=C(Cn1nc(C2=CCC(F)(F)CC2)ccc1=O)N1CCc2c(-c3ccnnc3)cccc21 [Example 527] | true
* CC1(C)CCN(c2ccc(=O)n(CC(=O)N3CCc4c(-c5cccnc5)cccc43)n2)CC1 [Example 234] | false

*Q* Does O=C(Cn1nc(C2=CCC3(CC2)CC3)ccc1=O)Nc1ccn2ncnc2c1 [Example 512] have a reported activation at 1 µM of at least 30%?
*A* true

*Q* Does O=C(Cn1nc(C2=CCC3(CC2)CC3)ccc1=O)N1CCc2c(-c3ccnnc3)cccc21 [Example 526] have a reported activation at 1 µM of at least 30%?
*A* false

*Q* Does C[C@@H]1CC=C(c2ccc(=O)n(CC(=O)Nc3ccc4ncnn4c3)n2)CC1 [Example 539] have a reported activation at 1 µM of at least 30%?
*A* false

*Q* Does C[C@@H]1CC=C(c2ccc(=O)n(CC(=O)Nc3ccn4ncnc4c3)n2)CC1 [Example 537] have a reported activation at 1 µM of at least 30%?
*A* false

*Q* Does O=C(Cn1nc(C2=CCCCC2)ccc1=O)N1CCc2c(-c3ccnnc3)cccc21 [Example 517] have a reported activation at 1 µM of at least 30%?
*A* false
